assay procedure: gradient 5% acetonitrile 3 min, to 50% in 2 min, to 85% in 15 min, held 3 min, 100 µL/min
experimental conditions: column: Zorbax Extend-C18 2.1 x 50 mm; eluents: water / acetonitrile, 0.1% formic acid
observable: RP-LC retention time (s)
Quick note: give the figure in s, leave out the unit.

*Q* Could you tell me which RP-LC retention time is on file for "O=S(=O)(Cc1ccc(Cl)cc1)Nc1cccn2ncnc12" ?
*A* 800

*Q* Likewise for Cc1nc2cc(N3CC(C(=O)Nc4cccc(Br)c4)CC3=O)ccc2o1 (stereo not drawn) ?
*A* 805

*Q* Try the compound "O=S(=O)(Nc1ccc(F)cc1F)c1ccc(-c2nnc(C3CCC3)o2)o1"
*A* 879

Origin of the recorded values: the METLIN SMRT retention time set (Domingo-Almenara et al. 2019)
